Examples of compounds with documented cell viability follow.
Tested on: Vero E6
procedure_text: cell viability relative to DMSO; higher = less toxic
assay_conditions: 72 h; 1 nM
// units = %; emit number, no label

Examples with their reported cell viability follow.
INSERT INTO results (compound, u, value_observed) VALUES
  ('CCCCCCCCCCCCCCCC(=O)OC(C)C [isopropyl-palmitate]', '%', 96),
  ('Oc1ccc(/C=C/c2cc(O)cc(O)c2)cc1', '%', 97.5),
  ('CC(O)Cn1cnc2c1c(=O)n(C)c(=O)n2C (centres undefined)', '%', 90.1);

[in] Provide cell viability value for the following compound: N#CC(=C(/N)Sc1ccccc1N)/C(C#N)=C(/N)Sc1ccccc1N
[out] 102

[in] Provide cell viability value for the following compound: CC1=CC[C@@H](C(C)(C)O)C[C@@H]1O [sobrepin]
[out] 98

[in] Provide cell viability value for the following compound: NCCCC(O)(P(=O)(O)O)P(=O)(O)O [alendronate]
[out] 102

[in] Provide cell viability value for the following compound: C[C@]12CC[C@@H](O)C[C@H]1CC[C@@H]1[C@@H]2CC[C@]2(C)C(=O)CC[C@@H]12 [3-alpha-hydroxy-5-beta-androstan-17-one]
[out] 99.8

[in] Provide cell viability value for the following compound: O=C(O)CCCc1ccccc1 [phenylbutyrate]
[out] 106

[in] Provide cell viability value for the following compound: CN1Cc2c(N)cccc2C(c2ccccc2)C1 (centres undefined)
[out] 97.9

[in] Provide cell viability value for the following compound: Nc1ccc2ncnc(NCCc3ccc(Oc4ccccc4)cc3)c2c1
[out] 93.5

[in] Provide cell viability value for the following compound: Nc1ncnc2c1C(=O)N(c1ccc([C@H]3CC[C@H](CC(=O)O)CC3)cc1)CCO2
[out] 98

[in] Provide cell viability value for the following compound: CC(C)c1ccc(NC(=O)c2cccs2)c(-c2nc3ccccc3[nH]c2=O)c1
[out] 96.3

[in] Provide cell viability value for the following compound: N#C/C(=C\c1ccc(O)c(O)c1)C(=O)OCCc1cccs1
[out] 98.5

[in] Provide cell viability value for the following compound: O=C1[C@@H]2[C@H]3CC[C@H](C3)[C@@H]2C(=O)N1CCCCN1CCN(c2ncccn2)CC1
[out] 107

[in] Provide cell viability value for the following compound: CN(C)CCOC(c1ccccc1)c1ccccc1.Cn1c(=O)c2[nH]c(Cl)nc2n(C)c1=O [dimenhydrinate]
[out] 93.8

[in] Provide cell viability value for the following compound: COc1cc(Cc2cnc(N)nc2N)c(C(C)C)cc1OC
[out] 90.6
